A short record of Ki observed with Rat SERT (Rattus norvegicus) follows.
Sequence (P31652 whole entry): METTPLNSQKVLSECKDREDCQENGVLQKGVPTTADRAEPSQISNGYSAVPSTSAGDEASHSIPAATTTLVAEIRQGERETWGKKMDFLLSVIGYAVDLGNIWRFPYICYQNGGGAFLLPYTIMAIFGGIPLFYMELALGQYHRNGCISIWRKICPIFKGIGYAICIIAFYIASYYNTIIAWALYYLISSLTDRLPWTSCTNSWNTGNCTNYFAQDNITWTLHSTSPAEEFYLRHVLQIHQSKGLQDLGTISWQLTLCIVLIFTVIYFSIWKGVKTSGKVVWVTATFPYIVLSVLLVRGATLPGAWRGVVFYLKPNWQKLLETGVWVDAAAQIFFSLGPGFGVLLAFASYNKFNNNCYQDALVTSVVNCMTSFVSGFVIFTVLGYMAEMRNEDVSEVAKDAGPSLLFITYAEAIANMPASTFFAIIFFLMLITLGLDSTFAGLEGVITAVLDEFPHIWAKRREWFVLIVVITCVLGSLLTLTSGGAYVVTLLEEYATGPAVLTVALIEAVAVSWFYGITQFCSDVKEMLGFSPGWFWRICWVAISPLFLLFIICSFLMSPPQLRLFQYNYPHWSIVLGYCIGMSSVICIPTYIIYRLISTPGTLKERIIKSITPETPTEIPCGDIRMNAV
Write down the numeric answer in nM and omit the unit.

Q) For the compound shown here, CC(C)N1CCN(Cc2ccc(C(CCN(C)C)Oc3ccc(C(F)(F)F)cc3)cc2)CC1 (stereo not shown) , give the reported Ki.
A) 27

Q) Queued: CNCCC(Oc1ccc(Cl)c(Cl)c1)c1ccc(OCCCN2CCCCC2)cc1 (stereo not shown)
A) 3

Q) Again, but for CNCCC(Oc1ccc(C(F)(F)F)cc1)c1ccc(OCCCN2CCCCC2)cc1 (stereo not shown)
A) 3

Q) Similarly, CN(C)CCC(Oc1ccc(C(F)(F)F)cc1)c1ccc(OCCCN2CCCCC2)cc1 (stereo not shown) ?
A) 17
